Assay: Acute toxicity (mouse)
Conditions: in vivo, ip, female mouse
OBSERVED PROPERTY: LD50 at 504 h (mg/kg)
One number for each entry, in mg/kg.

*Q* Which LD50 at 504 h is reported for this molecule? CC(C)CCC[C@H]1CC[C@@](C)(C(=O)O)CC1
*A* 998

###

Assay: Emulsification test
Assay type: physicochemical
Conditions: 10 ml of 0.25% solution of the salt + 10 ml toluene, 40° C., 15 minutes standing
Where a name gives a salt, the structure may show the parent alone.
OBSERVED PROPERTY: Separated volume of aqueous layer (mL)
Numbers only, in mL.

Could you report Separated volume of aqueous layer for every entry in the following list?
1. CC(C)CCC[C@H]1CC[C@@](C)(C(=O)N[C@@H](CCC(=O)O)C(=O)O)CC1 [Compound No. 15 (monosodium salt)]
2. CSCC[C@H](NC(=O)[C@]1(C)CC[C@H](CCCC(C)C)CC1)C(=O)O [Compound No. 17 (triethanolamine salt)]
3. CCC(NC(=O)[C@]1(C)CC[C@H](CCCC(C)C)CC1)C(=O)O (some centres unmarked) [Compound No. 12 (potassium salt)]
4. CC(C)CCC[C@H]1CC[C@H](C(=O)NCCCCCC(=O)O)CC1 [Compound No. 42 (sodium salt)]
5. CC(C)CCC[C@H]1CC[C@@](C)(C(=O)NCC(=O)O)CC1 [Compound No. 2 (potassium salt)]

*A*
1. 9.3
2. 9.5
3. 7.3
4. 9.5
5. 9.5

###

Assay: Acute toxicity (rat)
Settings: in vivo, sc, female rat
OBSERVED PROPERTY: LD50 at 504 h

*Q* Which LD50 at 504 h is reported for this compound? CC(C)CCC[C@H]1CC[C@@](C)(C(=O)O)CC1
*A* > 10000 mg/kg

###

Assay: Acute toxicity (mouse)
Conditions: in vivo, sc, male mouse
OBSERVED PROPERTY: LD50 at 504 h

*Q* Which LD50 at 504 h is reported for this compound? CC(C)CCC[C@H]1CC[C@@](C)(C(=O)O)CC1 [Compound No. 1]
*A* > 10000 mg/kg
